- Assay system: Fibroblast growth factor receptor 3 (Homo sapiens, UniProt P22607)
- Sequence (P22607 whole entry): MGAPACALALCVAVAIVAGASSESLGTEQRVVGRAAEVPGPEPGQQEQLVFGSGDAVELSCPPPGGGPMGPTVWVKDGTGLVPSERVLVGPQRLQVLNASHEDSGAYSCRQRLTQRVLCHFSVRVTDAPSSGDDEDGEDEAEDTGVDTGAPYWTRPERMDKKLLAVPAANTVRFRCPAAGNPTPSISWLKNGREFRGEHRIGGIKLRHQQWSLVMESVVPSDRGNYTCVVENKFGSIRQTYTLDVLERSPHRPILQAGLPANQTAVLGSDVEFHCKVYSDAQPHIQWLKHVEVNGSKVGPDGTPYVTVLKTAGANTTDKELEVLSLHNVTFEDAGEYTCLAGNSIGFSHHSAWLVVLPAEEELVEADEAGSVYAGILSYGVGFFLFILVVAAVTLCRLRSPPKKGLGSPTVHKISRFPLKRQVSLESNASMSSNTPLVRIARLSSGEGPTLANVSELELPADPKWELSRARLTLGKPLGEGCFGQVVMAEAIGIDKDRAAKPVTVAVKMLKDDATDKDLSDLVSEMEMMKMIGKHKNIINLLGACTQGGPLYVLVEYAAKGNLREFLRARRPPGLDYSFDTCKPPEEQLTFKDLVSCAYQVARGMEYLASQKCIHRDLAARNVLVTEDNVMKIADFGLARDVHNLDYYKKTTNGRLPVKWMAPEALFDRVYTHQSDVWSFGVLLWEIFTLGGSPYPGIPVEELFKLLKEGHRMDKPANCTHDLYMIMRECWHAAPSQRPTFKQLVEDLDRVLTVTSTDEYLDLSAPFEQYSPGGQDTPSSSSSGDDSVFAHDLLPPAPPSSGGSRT
Result type: pIC50
One number for each entry, as −log10 of the molar value.

Inquiry: Fill in pIC50 for record N#Cc1c(Oc2ccc(F)c(NC(=O)Cc3cccc(C(F)(F)F)c3)c2)ccc2nc(NC(=O)C3CC3)sc12
Reply text: 6.55

###

- Assay name: Mean residence time in rat at 1 mg/kg, iv
- Type: ADME, organism-based
- Parameters: dose 1 mg/kg, route intravenous
- Condition details: in vivo
Result type: MRT (h)
Give bare numbers, in h.

Inquiry: Fill in MRT for record N#Cc1c(Oc2ccc(F)c(NC(=O)Cc3cccc(C(F)(F)F)c3)c2)ccc2nc(NC(=O)C3CC3)sc12
Reply text: 4.69
